From: patent US5583127A

biological target: Na^+, K^+ -ATPase receptor (Homo sapiens, UniProt P05023); assay: displacement of the specific 3H-ouabain binding from the Na+,K+-ATPase receptor; details: displacement of specific 3H-ouabain binding; read-out: Binding ^3 H-Ouab. Displacement log IC50 (converted)
Category key, based on recorded IC50: lo = under 30 nM, mid = from 30 nM up to 600 nM, hi = 600 nM and over

These solved cases illustrate the format of a correct answer.
compound	measuredTarget	classLabel
CO/N=C/C=C/[C@H]1CC[C@]2(O)[C@@H]3CC[C@@H]4C[C@@H](O)CC[C@]4(C)[C@H]3CC[C@]12C [Comp. I-an]	Na^+, K^+ -ATPase receptor (Homo sapiens, UniProt P05023)	hi
C[C@]12CC[C@H](O)C[C@H]1CC[C@@H]1[C@@H]2CC[C@]2(C)[C@@H](/C=C/C=C/C=N/NC3=NCCN3)CC[C@]12O [Comp. I-av]	Na^+, K^+ -ATPase receptor (Homo sapiens, UniProt P05023)	hi
C[C@]12CC[C@H](O)C[C@H]1CC[C@@H]1[C@@H]2CC[C@]2(C)[C@@H](/C=C/C=N/NC(N)=O)CC[C@]12O [Comp. I-ak]	Na^+, K^+ -ATPase receptor (Homo sapiens, UniProt P05023)	hi
CN(C)CCON=CC[C@@]1(O)CC[C@]2(O)[C@@H]3CC[C@@H]4C[C@@H](O)CC[C@]4(C)[C@H]3CC[C@]12C (mixture of isomers) [Comp. I-bt]	Na^+, K^+ -ATPase receptor (Homo sapiens, UniProt P05023)	hi
C[C@]12CC[C@H](O)C[C@H]1CC[C@@H]1[C@@H]2CC[C@]2(C)[C@@H](/C=C/C=NOCCCNC(=N)N)CC[C@]12O (mixture of isomers) [Comp. I-at]	Na^+, K^+ -ATPase receptor (Homo sapiens, UniProt P05023)	mid

Query :: Into which category would you place CN(C)CCON=C/C=C/[C@H]1CC[C@]2(O)[C@@H]3CC[C@@H]4C[C@@H](O)CC[C@]4(C)[C@H]3CC[C@]12C (mixture of isomers) [Comp. I-aq] ?
Result :: lo

Query :: Into which category would you place C[C@]12CC[C@H](O)C[C@H]1CC[C@@H]1[C@@H]2CC[C@]2(C)[C@@](O)(/C=C/C=N/NC3=NCCN3)CC[C@]12O [Comp. I-bp] ?
Result :: hi

Query :: Into which category would you place C[C@]12CC[C@H](O)C[C@H]1CC[C@@H]1[C@@H]2CC[C@]2(C)[C@@H](CCC=NNC(=N)N)CC[C@]12O (mixture of isomers) [Comp. 1-bi] ?
Result :: mid

* * *

molecular target: purified Na^+,K^+ -ATPase (Homo sapiens); assay: inhibition of the activity of the purified Na+,K+-ATPase (% hydrolysis of 32P-ATP); type: biochemical; settings: purified Na+,K+-ATPase; read-out: Inhibitory Activity log IC50 (converted)
reportedMetric: IC50

molecule	recordedMeasurement
C[C@]12CC[C@@H](O)C[C@H]1CC[C@@H]1[C@@H]2CC[C@]2(C)[C@@H](/C=C/C=N/NC(=N)N)CC[C@]12O	316 nM
C[C@]12CC[C@H](OCCCN)C[C@H]1CC[C@@H]1[C@@H]2CC[C@]2(C)[C@@H](/C=C/C=N/NC(=N)N)CC[C@]12O	79.4 nM

Next, consider the following molecule.
Query :: Entry under review: C[C@]12CC[C@H](O)C[C@H]1CC[C@@H]1[C@@H]2CC[C@]2(C)[C@@H](CC=NNC(=N)N)CC[C@]12O (mixture of isomers) . Reported IC50?
Result :: 398 nM

* * *

molecular target: purified Na^+,K^+ -ATPase (Homo sapiens); experiment: inhibition of the activity of the purified Na+,K+-ATPase (% hydrolysis of 32P-ATP); assay type: biochemical; conditions: purified Na+,K+-ATPase; read-out: Inhibitory Activity log IC50 (converted)
// reported IC50 per item
Numeric only. Scale: nM

compound	reportedMetric	recordedMeasurement
C[C@]12CC[C@H](O)C[C@H]1CC[C@@H]1[C@@H]2CC[C@]2(C)[C@@](O)(/C=C/C=N/NC(=N)N)CC[C@]12O	IC50	10000
CN(C)CCON=CC[C@H]1CC[C@]2(O)[C@@H]3CC[C@@H]4C[C@@H](OCCN5CCCC5)CC[C@]4(C)[C@H]3CC[C@]12C (mixture of isomers)	IC50	100
C[C@]12CC[C@H](O)C[C@H]1CC[C@@H]1[C@@H]2CC[C@]2(C)[C@@H](/C=C/C=N/NC(N)=S)CC[C@]12O	IC50	39800
C[C@]12CC[C@H](O)C[C@H]1CC[C@@H]1[C@@H]2CC[C@]2(C)[C@@H](/C=C/C=N/OCCN)CC[C@]12O	IC50	20
C[C@]12CC[C@H](O)C[C@H]1CC[C@@H]1[C@@H]2CC[C@]2(C)[C@@H](CC=NOCCCN)CC[C@]12O (mixture of isomers)	IC50	398

Query :: // fetch purified Na^+,K^+ -ATPase (Homo sapiens) IC50 for C[C@]12CC[C@H](O)C[C@H]1CC[C@@H]1[C@@H]2CC[C@]2(C)[C@@H](/C=C/C=C/C=N/NC3=NCCN3)CC[C@]12O
Result :: 10000

Query :: // fetch purified Na^+,K^+ -ATPase (Homo sapiens) IC50 for C[C@]12CC[C@H](OCCN)C[C@H]1CC[C@@H]1[C@@H]2CC[C@]2(C)[C@@H](/C=C/C=NNC(=N)N)CC[C@]12O (mixture of isomers)
Result :: 100

Query :: // fetch purified Na^+,K^+ -ATPase (Homo sapiens) IC50 for CN(C)CCON=C/C=C/[C@H]1CC[C@]2(O)[C@@H]3CC[C@@H]4C[C@@H](OCCN)CC[C@]4(C)[C@H]3CC[C@]12C (mixture of isomers)
Result :: 31.6

Query :: // fetch purified Na^+,K^+ -ATPase (Homo sapiens) IC50 for CN(C)CCO/N=C/C=C/[C@H]1CC[C@]2(O)[C@@H]3CC[C@@H]4C[C@H](O)CC[C@]4(C)[C@H]3CC[C@]12C
Result :: 63.1

Query :: // fetch purified Na^+,K^+ -ATPase (Homo sapiens) IC50 for C[C@]12CC[C@H](O)C[C@H]1CC[C@@H]1[C@@H]2CC[C@]2(C)[C@@H](CCC=NNC(=N)N)CC[C@]12O (mixture of isomers)
Result :: 2000

Query :: // fetch purified Na^+,K^+ -ATPase (Homo sapiens) IC50 for CO/N=C/C=C/[C@H]1CC[C@]2(O)[C@@H]3CC[C@@H]4C[C@@H](O)CC[C@]4(C)[C@H]3CC[C@]12C
Result :: 20000

Query :: // fetch purified Na^+,K^+ -ATPase (Homo sapiens) IC50 for C[C@]12CC[C@H](O)C[C@H]1CC[C@@H]1[C@@H]2CC[C@]2(C)[C@@H](CCC=NOCCN)CC[C@]12O (mixture of isomers)
Result :: 79.4

* * *

molecular target: purified Na^+,K^+ -ATPase (Homo sapiens); assay: inhibition of the activity of the purified Na+,K+-ATPase (% hydrolysis of 32P-ATP); format: biochemical; conditions: purified Na+,K+-ATPase; read-out: Inhibitory Activity log IC50 (converted)
reportedMetric: IC50

Previously resolved entries follow.
molecule	measuredTarget	recordedMeasurement
C[C@]12CC[C@H](O)C[C@H]1CC[C@@H]1[C@@H]2CC[C@]2(C)[C@@H](/C=C/C=N/NC3=NCC(=O)N3)CC[C@]12O	purified Na^+,K^+ -ATPase (Homo sapiens)	39800 nM
CN(C)CCCON=C/C=C/[C@H]1CC[C@]2(O)[C@@H]3CC[C@@H]4C[C@@H](O)CC[C@]4(C)[C@H]3CC[C@]12C (mixture of isomers)	purified Na^+,K^+ -ATPase (Homo sapiens)	126 nM
CN(C)CCON=C/C=C/[C@H]1CC[C@]2(O)[C@@H]3CC[C@@H]4C[C@@H](OCCN5CCCC5)CC[C@]4(C)[C@H]3CC[C@]12C (mixture of isomers)	purified Na^+,K^+ -ATPase (Homo sapiens)	31.6 nM
CN(C)CCON=CC[C@H]1CC[C@]2(O)[C@@H]3CC[C@@H]4C[C@@H](OCCCN5CCCC5)CC[C@]4(C)[C@H]3CC[C@]12C (mixture of isomers)	purified Na^+,K^+ -ATPase (Homo sapiens)	158 nM

Next, consider the following molecule.
Query :: // fetch purified Na^+,K^+ -ATPase (Homo sapiens) IC50 for C[C@]12CC[C@H](O)C[C@H]1CC[C@@H]1[C@@H]2CC[C@]2(C)[C@@H](/C=C/C=NOCCCNC(=N)N)CC[C@]12O (mixture of isomers)
Result :: 316 nM

* * *

target: Na^+, K^+ -ATPase receptor (Homo sapiens, UniProt P05023); experiment: displacement of the specific 3H-ouabain binding from the Na+,K+-ATPase receptor; details: displacement of specific 3H-ouabain binding; read-out: Binding ^3 H-Ouab. Displacement log IC50 (converted)
Param label: returns 1.0 when IC50 < 30 nM, returns 0.0 otherwise, including exact equality.

These solved cases illustrate the format of a correct answer.
compound	classLabel
C[C@]12CC[C@H](O)C[C@H]1CC[C@@H]1[C@@H]2CC[C@]2(C)[C@@H](CCC=NNC3=NCCN3)CC[C@]12O (mixture of isomers) [Comp. I-bj]	0.0
C[C@]12CC[C@H](O)C[C@H]1CC[C@@H]1[C@@H]2CC[C@]2(C)[C@@H](/C=C/C=N/NC3=NCC(=O)N3)CC[C@]12O [Comp. I-af]	0.0
CC(CO[C@H]1CC[C@@]2(C)[C@H](CC[C@@H]3[C@@H]2CC[C@]2(C)[C@@H](/C=C/C=NOCCN(C)C)CC[C@]32O)C1)N1CCCC1 (mixture of isomers) [Comp. I-ca]	0.0

Query :: Determine whether this compound shows IC50 lower than 30 nM (ties excluded): C[C@]12CC[C@H](OCCCN)C[C@H]1CC[C@@H]1[C@@H]2CC[C@]2(C)[C@@H](/C=C/C=N/NC(=N)N)CC[C@]12O [qomp. I-cd]
Result :: 1.0

Query :: Determine whether this compound shows IC50 lower than 30 nM (ties excluded): C[C@]12CC[C@H](O)C[C@H]1CC[C@@H]1[C@@H]2CC[C@]2(C)[C@@](O)(/C=C/C=N/NC(=N)N)CC[C@]12O [Comp. 1-bo]
Result :: 0.0

Query :: Determine whether this compound shows IC50 lower than 30 nM (ties excluded): CN(C)CCON=C/C=C/[C@H]1CC[C@]2(O)[C@@H]3CC[C@@H]4C[C@@H](OCCN)CC[C@]4(C)[C@H]3CC[C@]12C (mixture of isomers) [Comp. I-cc]
Result :: 1.0
